- Tested on: Klebsiella pneumoniae ATCC 10031
- PROTOCOL TEXT: Antibacterial activity, MIC
- Format: cell-based
- STUDY CONDITIONS: ATCC10031, ATCC 10031, agar two-fold dilution, 37° C., 20 hours, read-out: MIC
- Procedure: Also, the in vitro antibacterial activity was determined by the by a two-fold dilution method as described below: That is, the two-fold serial dilutions of the compound were made dispersed in Muller-Hinton agar medium. 2 μl of standard test strain which had the 10^7 CFU per ml was inoculated on the medium, and was incubated at 37° C. for 20 hours.
// MIC lookup, one value per entry
Hi! Could you send only the number? It should be in µg/mL, unit omitted.

Some solved cases for reference:
# COMPOUND, MIC (µg/mL)
records = [
    ("C=CCO/N=C(\\C(=O)NC1C(=O)N2C(C(=O)[O-])=C(CSc3nc(N)cc(N)[n+]3C)CSC12)c1csc(N)n1 (stereo not shown)", 0.016),
    ("CCc1c(N)nc(SCC2=C(C(=O)[O-])N3C(=O)C(NC(=O)/C(=N\\OC(C)(C)C(=O)O)c4csc(N)n4)C3SC2)[n+](CC)c1N (stereo not shown)", 0.13),
    ("CC(C)(O/N=C(\\C(=O)NC1C(=O)N2C(C(=O)[O-])=C(CSc3nc(N)cc(N)[n+]3C3CC3)CSC12)c1csc(N)n1)C(=O)O (stereo not shown)", 0.063),
    ("CC(O/N=C(\\C(=O)NC1C(=O)N2C(C(=O)[O-])=C(CSc3nc(N)cc(N)[n+]3N)CSC12)c1csc(N)n1)C(=O)O (stereo not shown)", 0.031),
    ("CC(C)(O/N=C(\\C(=O)NC1C(=O)N2C(C(=O)[O-])=C(CSc3nc(N)cc(N)[n+]3N)CSC12)c1nsc(N)n1)C(=O)O (stereo not shown)", 0.063),
    ("CC[n+]1c(N)cc(N)nc1SCC1=C(C(=O)[O-])N2C(=O)C(NC(=O)/C(=N\\OCC(=O)O)c3csc(N)n3)C2SC1 (stereo not shown)", 0.016),
    ("Cc1c(N)nc(SCC2=C(C(=O)[O-])N3C(=O)C(NC(=O)/C(=N\\OC(C)(C)C(=O)O)c4csc(N)n4)C3SC2)[n+](N)c1N (stereo not shown)", 0.063),
    ("C=CC[n+]1c(N)cc(N)nc1SCC1=C(C(=O)[O-])N2C(=O)C(NC(=O)/C(=N\\OC(C)(C)C(=O)O)c3csc(N)n3)C2SC1 (stereo not shown)", 0.063),
]

Let's switch to this compound now.
MIC reported for this compound CC(C)(O/N=C(\C(=O)NC1C(=O)N2C(C(=O)[O-])=C(CSc3nc(N)cc(N)[n+]3N)CS[C@H]12)c1csc(N)n1)C(=O)O (stereo partly shown) : 0.063

Attribution: patent US5202315A
